Reported pIC50 values follow for various molecules
# target_of_assay: Beta-galactoside alpha-2,6-sialyltransferase 1 (Homo sapiens, UniProt P15907)
# Sequence (P15907 whole entry): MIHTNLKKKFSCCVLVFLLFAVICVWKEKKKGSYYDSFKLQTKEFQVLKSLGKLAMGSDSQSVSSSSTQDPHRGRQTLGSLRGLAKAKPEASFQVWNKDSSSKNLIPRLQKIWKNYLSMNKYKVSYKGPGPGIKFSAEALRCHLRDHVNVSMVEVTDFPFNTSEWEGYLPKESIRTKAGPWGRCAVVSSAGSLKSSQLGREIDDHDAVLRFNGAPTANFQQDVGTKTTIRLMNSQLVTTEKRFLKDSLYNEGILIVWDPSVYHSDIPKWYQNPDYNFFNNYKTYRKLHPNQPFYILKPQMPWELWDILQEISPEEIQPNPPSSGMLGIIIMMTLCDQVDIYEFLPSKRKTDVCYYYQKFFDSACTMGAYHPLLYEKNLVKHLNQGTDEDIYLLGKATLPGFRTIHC
pIC50: −log10 of the molar value.

molecular_string	pIC50
COc1ccc2c(CC(=O)N[C@@H](CC(=O)O)C(=O)O[C@@H]3CC[C@@]4(C)[C@H](CC[C@@H]5[C@@H]4CC[C@]4(C)[C@@H]([C@H](C)CCC(=O)OCCOCCN=[N+]=[N-])CC[C@@H]54)C3)cc(=O)oc2c1	5.29
C[C@H](CCC(=O)OCCOCCN=[N+]=[N-])[C@H]1CC[C@H]2[C@@H]3CC[C@@H]4C[C@H](OC(=O)[C@H](CC(=O)O)NC(=O)c5ccc([N+](=O)[O-])cc5)CC[C@]4(C)[C@H]3CC[C@]12C	5.17
C[C@H](CCC(=O)OCCOCCOCCOCCOCCN=[N+]=[N-])[C@H]1CC[C@H]2[C@@H]3CC[C@@H]4C[C@H](OC(=O)[C@H](CC(=O)O)Nc5ccc([N+](=O)[O-])c6nonc56)CC[C@]4(C)[C@H]3CC[C@]12C	5.30
C[C@H](CCC(=O)O)[C@H]1CC[C@H]2[C@@H]3CC[C@@H]4C[C@H](OC(=O)[C@@H](N)CC(=O)O)CC[C@]4(C)[C@H]3CC[C@]12C	4.80
COc1ccc2c(CC(=O)N[C@@H](CC(=O)O)C(=O)O[C@@H]3CC[C@@]4(C)[C@H](CC[C@@H]5[C@@H]4CC[C@]4(C)[C@@H]([C@H](C)CCC(=O)OCCN=[N+]=[N-])CC[C@@H]54)C3)cc(=O)oc2c1	5.25
C[C@H](CCC(=O)OCCOCCOCCN=[N+]=[N-])[C@H]1CC[C@H]2[C@@H]3CC[C@@H]4C[C@H](OC(=O)[C@H](CC(=O)O)NC(=O)c5ccc([N+](=O)[O-])cc5)CC[C@]4(C)[C@H]3CC[C@]12C	5.27
COc1ccc2c(CC(=O)N[C@@H](CC(=O)O)C(=O)O[C@@H]3CC[C@@]4(C)[C@H](CC[C@@H]5[C@@H]4CC[C@]4(C)[C@@H]([C@H](C)CCC(=O)OCCOCCOCCN=[N+]=[N-])CC[C@@H]54)C3)cc(=O)oc2c1	5.34
C[C@H](CCC(=O)OCCN=[N+]=[N-])[C@H]1CC[C@H]2[C@@H]3CC[C@@H]4C[C@H](OC(=O)[C@H](CC(=O)O)Nc5ccc([N+](=O)[O-])c6nonc56)CC[C@]4(C)[C@H]3CC[C@]12C	5.38
C[C@H](CCC(=O)OCCOCCOCCOCCN=[N+]=[N-])[C@H]1CC[C@H]2[C@@H]3CC[C@@H]4C[C@H](OC(=O)[C@H](CC(=O)O)NC(=O)c5ccc([N+](=O)[O-])cc5)CC[C@]4(C)[C@H]3CC[C@]12C	5.24
